- assay_overview: Monitoring of the plasma concentration of the main oligosaccharides of a VLMWH in human volunteers (plasma filtration + anion-exchange HPLC)
- Type: in vivo
- condition_info: 8 h after administration of VLMWH (2500 Da) 1.4 mg/kg
Provide the reported plasma concentration of each item.
Reply with just the number (in µM).

Looking for the measured plasma concentration of O=C(O)C1=CC(O)C(OS(=O)(=O)O)C(OC2C(COS(=O)(=O)O)OC(OC3C(C(=O)O)OC(OC4C(COS(=O)(=O)O)OC(OC5C(C(=O)O)OC(OC6C(COS(=O)(=O)O)OC(O)C(NS(=O)(=O)O)C6O)C(OS(=O)(=O)O)C5O)C(NS(=O)(=O)O)C4O)C(OS(=O)(=O)O)C3O)C(NS(=O)(=O)O)C2O)O1 (centres unmarked) , can you help?
0.00

Looking for the measured plasma concentration of O=C(O)C1=CC(O)C(OS(=O)(=O)O)C(OC2C(COS(=O)(=O)O)OC(OC3C(C(=O)O)OC(OC4C(COS(=O)(=O)O)OC(O)C(NS(=O)(=O)O)C4O)C(OS(=O)(=O)O)C3O)C(NS(=O)(=O)O)C2O)O1 (centres unmarked) , can you help?
0.02

###

- assay_overview: Monitoring of the plasma concentration of the main oligosaccharides of a VLMWH in human volunteers (plasma filtration + anion-exchange HPLC)
- Assay type: in vivo
- condition_info: 0.5 h after administration of VLMWH (2500 Da) 1.4 mg/kg
Provide the reported plasma concentration of each item.
Reply with just the number (in nM).

Looking for the measured plasma concentration of O=C(O)C1=CC(O)C(OS(=O)(=O)O)C(OC2C(COS(=O)(=O)O)OC(OC3C(C(=O)O)OC(OC4C(COS(=O)(=O)O)OC(O)C(NS(=O)(=O)O)C4O)C(OS(=O)(=O)O)C3O)C(NS(=O)(=O)O)C2O)O1 (centres unmarked) [ΔIsIs] , can you help?
240

Looking for the measured plasma concentration of CC(=O)NC1C(OC2C(C(=O)O)OC(OC3C(COS(=O)(=O)O)OC(OC4C(C(=O)O)OC(OC5C(COS(=O)(=O)O)OC(OC6C(C(=O)O)OC(OC7C(COS(=O)(=O)O)OC(O)C(NS(=O)(=O)O)C7O)C(OS(=O)(=O)O)C6O)C(NS(=O)(=O)O)C5O)C(OS(=O)(=O)O)C4O)C(NS(=O)(=O)O)C3OS(=O)(=O)O)C(O)C2O)OC(COS(=O)(=O)O)C(OC2OC(C(=O)O)=CC(O)C2O)C1O (centres unmarked) [ΔIIaIIsIsIs] , can you help?
30

Looking for the measured plasma concentration of CC(=O)NC1C(OC2C(C(=O)O)OC(OC3C(COS(=O)(=O)O)OC(OC4C(C(=O)O)OC(OC5C(COS(=O)(=O)O)OC(O)C(NS(=O)(=O)O)C5O)C(OS(=O)(=O)O)C4O)C(NS(=O)(=O)O)C3OS(=O)(=O)O)C(O)C2O)OC(COS(=O)(=O)O)C(OC2OC(C(=O)O)=CC(O)C2O)C1O (centres unmarked) [ΔIIaIIsIs] , can you help?
100

Looking for the measured plasma concentration of O=C(O)C1=CC(O)C(OS(=O)(=O)O)C(OC2C(COS(=O)(=O)O)OC(O)C(NS(=O)(=O)O)C2O)O1 (centres unmarked) [ΔIs] , can you help?
300

Looking for the measured plasma concentration of O=C(O)C1=CC(O)C(OS(=O)(=O)O)C(OC2C(COS(=O)(=O)O)OC(OC3C(C(=O)O)OC(OC4C(COS(=O)(=O)O)OC(OC5C(C(=O)O)OC(OC6C(COS(=O)(=O)O)OC(O)C(NS(=O)(=O)O)C6O)C(OS(=O)(=O)O)C5O)C(NS(=O)(=O)O)C4O)C(OS(=O)(=O)O)C3O)C(NS(=O)(=O)O)C2O)O1 (centres unmarked) [ΔIsIsIs] , can you help?
40

Reference for the values: patent US7575930B2
